System: UO-31 renal
Assay: NCI-60 one-dose screen, 48 h (100 = growth as untreated, 0 = no growth, -100 = all killed)
Settings: 10 µM
About 83,000 compounds went through this panel and 20% of them were active in at least one assay; those are over-represented in the sample as a whole. Active and inactive are the calls of the source. Rule for the calls: active = growth percent below 10; inactive = the rest.
Recorded measurements of growth, one per entry

Recorded results for 10 compounds are shown here.
1. CCCCSc1nc(Nc2ccc(/C(C)=N/NC(N)=S)cc2)c(C#N)c(-c2ccc(F)cc2)n1 ... 19.6% (inactive)
2. O=C(Nc1nc2ccccc2s1)c1ccc(Br)cc1 ... 76.1% (inactive)
3. COc1ccccc1[C@H]1C(C(=O)c2ccc(Cl)cc2)C2(N[C@@H]1c1ccccc1)C(=O)Nc1ccc(Cl)cc12 (stereo partly drawn) ... 6.99% (active)
4. COc1ccc(-c2cc(-c3cc(C(=O)c4ccc(Br)cc4)n4ccc(C)cc34)nc(N)c2C#N)cc1 ... 64.3% (inactive)
5. COc1ccc(-c2cc(C(=O)N=Nc3c(O)[nH]c4ccc(Br)cc34)c3ccccc3n2)cc1 ... 43.2% (inactive)
6. CO[C@@H]1CSS[C@H]1Cn1nc(-c2ccc(Oc3ccccc3)cc2)c2c(N)ncnc21 ... 27.2% (inactive)
7. COc1cc2c(c(OC)c1OC)C(=O)CC(c1cccc(NC(=O)c3cccc(N)c3)c1)O2 (stereo not drawn) ... 58.6% (inactive)
8. Cc1ccc(CSc2nc(-c3ccc(F)cc3)c(C#N)c(=O)[nH]2)cc1 ... 96.2% (inactive)
9. CC1(C)CC[C@]2(C(=O)O)CC[C@]3(C)C(=CC[C@@H]4[C@@]5(C)C/C(=C/c6ccncc6)[C@H](O)C(C)(C)[C@@H]5CC[C@]43C)[C@@H]2C1 ... 32.9% (inactive)
10. Cc1nc(Nc2nc(C)c3ccc(OCCN4CCOCC4)cc3n2)[nH]c(=O)c1C ... -63.8% (active)

Problem: For the record `COc1ccc(-c2cc(C(=O)N=Nc3c(O)[nH]c4ccc(F)cc34)c3ccccc3n2)cc1` , what value of growth is listed for UO-31 renal?
Solution: 67.6% (inactive)

Problem: Input `CCCCOc1ccc(Nc2nc3ccccc3nc2Nc2ccc(OCCCC)cc2)cc1`
Solution: 85.3% (inactive)

Problem: Input `CCCCSc1nc(Nc2ccc(/C(C)=N/NC(N)=S)cc2)c(C#N)c(-c2ccc(OC)cc2)n1`
Solution: -19.7% (active)

Problem: Input `CCCCCc1ccc(S(=O)(=O)N(C(C)=O)c2cc(-c3csc(N(C)C(C)=O)n3)ccc2N2CCN(C)CC2)cc1`
Solution: 41.8% (inactive)

Problem: Input `CCOC(=O)CNC(=O)CN(Cc1ccccc1)C(=O)[C@@]1(C)CCC[C@]2(C)[C@H]3C[C@H]4C(C(C)C)=C[C@]3(CC[C@H]21)[C@@H]1C(=O)OC(=O)[C@@H]14`
Solution: 65.5% (inactive)

Problem: Input `Cc1cccc(-c2nc(Nc3ccccc3C(=O)O)c3ccccc3n2)c1`
Solution: 31% (inactive)

Problem: Input `C=C1CC[C@H](C(=C)C)[C@H]2C=C(C)C(=O)C3=C(C(=O)[C@@](C)(O)C3)[C@H]12`
Solution: -99.8% (active)

The origin of these recorded values is PubChem BioAssay (NCI).
